Reported IC50 values for a set of compounds
# assayed.system: KRAS G12V (Homo sapiens, UniProt P01116, G12V)
# Sequence (P01116 1-188 isoform P01116-2 G12V): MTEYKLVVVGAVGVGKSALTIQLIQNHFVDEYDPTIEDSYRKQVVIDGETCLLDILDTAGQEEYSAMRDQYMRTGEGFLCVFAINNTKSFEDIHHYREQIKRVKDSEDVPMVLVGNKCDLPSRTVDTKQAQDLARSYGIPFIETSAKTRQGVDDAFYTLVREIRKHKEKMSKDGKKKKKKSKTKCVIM
# experimental.details: HTRF KRAS-SOS1 interaction assay, KRAS G12V
# setup.conditions: binned ≤2 μM / >2 μM, read-out: Inhibition of KRAS G12V (IC50)

compound	IC50
C=CC(F)(F)[C@@H](c1cccnc1N)N1CCOc2c(Cl)c(-c3ccc(F)c4sc(N)c(C#N)c34)c(F)c3nc(OC[C@@]45CCCN4C[C@H](F)C5)nc1c23 [Compound 834]	≤ 2000 nM

Query for KRAS G12V (Homo sapiens, UniProt P01116, G12V): what IC50 does the record show for C[C@H](c1cncnc1N)N1CCOc2c(C(F)(F)F)c(-c3ccc(F)c4sc(N)c(C#N)c34)c(F)c3nc(OCC4(CN5CCC(=CF)CC5)CC4)nc1c23 [Compound 916] ?
≤ 2000 nM

Query for KRAS G12V (Homo sapiens, UniProt P01116, G12V): what IC50 does the record show for CON=C1CN2CCC[C@@]2(COc2nc3c4c(c(Cl)c(-c5ccc(F)c6sc(N)c(C#N)c56)c(F)c4n2)OCCN3[C@H](C)c2cccnc2N)C1 (mixture of isomers) [Compound 653] ?
≤ 2000 nM

Query for KRAS G12V (Homo sapiens, UniProt P01116, G12V): what IC50 does the record show for C[C@H](c1cc(F)cnc1N)N1CCOc2c(C(F)(F)F)c(-c3ccc(F)c4sc(N)c(C#N)c34)c(F)c3nc(OC[C@@]45CCCN4C[C@H](F)C5)nc1c23 (single isomer, unassigned) [Compound 682] ?
> 2000 nM

Query for KRAS G12V (Homo sapiens, UniProt P01116, G12V): what IC50 does the record show for C=C1CN2CCC[C@@]2(COc2nc3c4c(c(C(F)(F)F)c(-c5ccc(F)c6sc(N)c(C#N)c56)c(F)c4n2)OCCN3[C@H](C)c2cc(F)cnc2N)C1 [Compound 620] ?
≤ 2000 nM

Query for KRAS G12V (Homo sapiens, UniProt P01116, G12V): what IC50 does the record show for N#Cc1c(N)sc2c(F)ccc(-c3c(Cl)c4c5c(nc(OC[C@@]67CCCN6C[C@H](F)C7)nc5c3F)N(C(/C=C/C(F)(F)F)c3cccnc3N)CCO4)c12 (mixture of isomers) [Compound 828] ?
≤ 2000 nM

Query for KRAS G12V (Homo sapiens, UniProt P01116, G12V): what IC50 does the record show for N#Cc1c(N)sc2c(F)ccc(-c3c(Cl)c4c5c(nc(OC[C@@]67CCCN6C[C@H](F)C7)nc5c3F)N(C(c3cccnc3N)C(F)F)CCO4)c12 (single isomer, unassigned) [Compound 618] ?
≤ 2000 nM

Query for KRAS G12V (Homo sapiens, UniProt P01116, G12V): what IC50 does the record show for N#Cc1c(N)sc2c(F)ccc(-c3c(Cl)c4c5c(nc(OC[C@@]67CCCN6C[C@H](F)C7)nc5c3F)N([C@H](/C=C/C3CC3)c3cccnc3N)CCO4)c12 [Compound 676] ?
≤ 2000 nM

Query for KRAS G12V (Homo sapiens, UniProt P01116, G12V): what IC50 does the record show for C[C@H](c1cccnc1N)N1C[C@H](C)Oc2c(C(F)(F)F)c(-c3ccc(F)c4sc(N)c(C#N)c34)c(F)c3nc(OC[C@@]45CCCN4C[C@H](F)C5)nc1c23 (single isomer, unassigned) [Compound 697] ?
≤ 2000 nM

Query for KRAS G12V (Homo sapiens, UniProt P01116, G12V): what IC50 does the record show for C[C@H](c1cccnc1N)N1CCOc2c(Cl)c(-c3ccc(F)c4sc(N)c(C#N)c34)c(F)c3nc(OC[C@@]45CCCN4C[C@]4(CC4(F)F)C5)nc1c23 [Compound 918] ?
≤ 2000 nM
